EXPERIMENT_SUMMARY: viability loss with induced miR-34 in A549 – imaging, A549 dox-inducible miR-34, nuclei and caspase counts, primary screen (AID 1347080); also: test concentration not given here
PROTOCOL_CONDITIONS: A549 miR-34 inducible, Hoechst nuclei count, 48 h; measured here: total cells with miR-34 induction; stronger effect = lower value
OUTCOME_MEASURE: cell count
Please state the value as a number alone, without comment.

Solved cases (3 shown):
CCCCC/C=C\C\C=C/C=C/C=C/[C@@H](SCC(NC(C)=O)C(=O)O)[C@@H](O)CCCC(=O)O (stereo not given in full)	5780
CNC(=O)c1ccccc1Sc1ccc2c(C=Cc3ccccn3)n[nH]c2c1	2240
O=C(c1ccc(F)cc1)N1CCCC(c2nc(-c3ccc(F)cc3)no2)C1 (stereo not given)	8270

Field request: cell count | item: "CCOc1ccccc1-c1ncnc2sc(C)c(C)c12"
6100

Origin of the recorded values: PubChem BioAssay
